- Tested on: SW-620 colon
- experiment-notes: NCI tumour cell line growth inhibition, 48 h; in the data active means GI50 below about 0.43 µM; inactive means the rest
Entry note: the call must match one of active, inactive

Solved entries (count: 4):
>  <molecule>
CC[C@H](C)C(=O)O[C@H]1CCC=C2C=C[C@H](C)[C@H](CC[C@@H]3C[C@@H](O)CC(=O)O3)[C@H]21

>  <target-of-assay>
SW-620 colon

>  <category>
inactive

$$$$
>  <molecule>
CCOC1Oc2ccccc2C(=O)/C1=C\Nc1ccc(C(=O)O)c(O)c1 (stereo not drawn)

>  <target-of-assay>
SW-620 colon

>  <category>
inactive

$$$$
>  <molecule>
COc1cc2c(cc1OC)-c1c(c3ccc([N+](=O)[O-])cc3c(=O)n1CCCN=[N+]=[N-])C2=O

>  <target-of-assay>
SW-620 colon

>  <category>
inactive

$$$$
>  <molecule>
O=C(C(=O)c1cccnc1)c1cccnc1

>  <target-of-assay>
SW-620 colon

>  <category>
inactive

$$$$

Challenge: Can you look up the reported call for `Cc1ccc2c(c1)C(=O)/C(=C/c1cccc(OCC(=O)c3ccc(Cl)cc3)c1)CS2` for me?
Response given: inactive

Challenge: Can you look up the reported call for `NS(=O)(=O)c1ccc(-n2nc(-c3ccccc3)cc2-c2cc(O)ccc2O)cc1` for me?
Response given: inactive

Challenge: Can you look up the reported call for `O=C1/C=C/[C@@H](O)[C@@H]2C[C@@H](O)C[C@H]2/C=C/CCC[C@H](CCc2ccc(NC(=S)Nc3ccc4c(c3)C(=O)OC43c4ccc(O)cc4Oc4cc(O)ccc43)cc2)O1` for me?
Response given: active

Challenge: Can you look up the reported call for `Cc1cnc(-c2ccc(-c3ccc(NC(=O)Nc4cccc(C(F)(F)F)c4)cc3F)c3c2C(=O)NC3)[nH]1` for me?
Response given: active

* * *

- Test system: LOX IMVI melanoma
- experiment-notes: NCI tumour cell line growth inhibition, 48 h
measurement-type: TGI (µM)
Numbers only, in µM.

>  <compound>
Cc1cc2nc3c(C#N)c4c(c(Cl)n3c2cc1C)CCC4

>  <target-of-assay>
LOX IMVI melanoma

>  <quantitative-readout>
32

$$$$
>  <compound>
[O-][N+]1=C(c2ccccc2)/C(=C2/C(c3ccccc3)=[N+]([O-])c3ccccc32)Cc2ccccc21

>  <target-of-assay>
LOX IMVI melanoma

>  <quantitative-readout>
34.5

$$$$
>  <compound>
C=C1C(=O)O[C@H]2C1C[C@H](O)/C(C)=C/CC[C@@]1(C)O[C@H]21 (stereo not given in full)

>  <target-of-assay>
LOX IMVI melanoma

>  <quantitative-readout>
23.5

$$$$

Challenge: Tell me its TGI on LOX IMVI melanoma: `CC[C@@]1(O)C(=O)OCc2c1cc1n(c2=O)Cc2cc3cccc(N)c3nc2-1`
Response given: 37.2

* * *

Exercise: state measured TGI for each of the compounds provided.
- Test system: SK-MEL-28 melanoma
- experiment-notes: NCI tumour cell line growth inhibition, 48 h

>  <compound>
CCOC(=O)C1=C(C)C2C3C(=O)OC(=O)C3C1(C)C1C(=O)OC(=O)C21 (stereo not given)

>  <target-of-assay>
SK-MEL-28 melanoma

>  <result>
> 100 µM

$$$$
>  <compound>
Cc1nnc(N)nc1C/C=C/C(C)Sc1ccc(Cl)cc1 (stereo not given)

>  <target-of-assay>
SK-MEL-28 melanoma

>  <result>
45 µM

$$$$
>  <compound>
O=c1[nH]nc(-c2ccccc2)n1-n1cccc1

>  <target-of-assay>
SK-MEL-28 melanoma

>  <result>
> 100 µM

$$$$
>  <compound>
O=[N+]([O-])c1cc(C(F)(F)F)cc2c1SC1=Nc3ccccc3CN12

>  <target-of-assay>
SK-MEL-28 melanoma

>  <result>
> 100 µM

$$$$

Challenge: Indicate the recorded TGI value for this compound: `CC(=O)Oc1ccc(C)c2c1[C@H]1CC[C@]3(C)[C@@H](OC(C)=O)CC[C@H]3[C@@H]1CC2`
Response given: 33.2 µM
